# Test system: HOP-92 NSCLC
# Experimental details: NCI-60 one-dose screen, 48 h
# Conditions: 10 µM unless noted
About 83,000 compounds went through this panel and 20% of them were active in at least one assay; those are over-represented in the sample as a whole. Active and inactive are the calls of the source. Rule for the calls: active = growth percent below 10; inactive = the rest.
Hi! Could you answer with just one of these? Y = active, N = inactive

Compound	Group label
O=C(/C=C/c1ccc(C(F)(F)F)cc1)Nc1ccc(C=C2c3ccccc3C(=O)c3ccccc32)cc1	N

Let us examine a further case.
QUERY: Which result was noted for this compound in the test: CC1=C[C@H]2c3c(c(O)c(O)c4oc5cc(O)ccc5c(=O)c34)[C@H](c3cc(O)c(O)c4oc5cc(O)ccc5c(=O)c34)[C@H]2C(C)(C)C1
RESULT: Y

---

# Test system: NCI-H23 lung
# Experimental details: NCI-60 one-dose screen, 48 h
# Conditions: 10 µM unless noted
About 83,000 compounds went through this panel and 20% of them were active in at least one assay; those are over-represented in the sample as a whole. Active and inactive are the calls of the source. The calls were made as follows: active = growth percent below 10; inactive = the rest.
Hi! Could you answer with just one of these? yes (1) for active, no (0) for inactive

Please review the following examples before continuing.
Molecule	Group label
CCCSc1ccc2nc(NC(=O)OC)[nH]c2c1	no (0)
Cc1cc(N2CCSCC2)nc(NC2CCCC(Nc3ccnc4cc(Cl)ccc34)C2)n1 (stereo not given)	no (0)
Clc1ccc2c(NCCCNc3nc(-n4ccnc4)nc4ccccc34)ccnc2c1	no (0)
C=CC(=O)Nc1cccc(-c2nc(SC)nc(Nc3cccc(OC)c3)c2C#N)c1	no (0)
CCOC(=O)C(C)(C#N)C1C=CCCC1 (stereo not given)	no (0)
CC(=O)O[C@H]1CC[C@]2(C)[C@H]3CC=C4[C@@H]5CC(C)(C)CC[C@]5(C(=O)NCCNCCNCCN)CC[C@@]4(C)[C@]3(C)CC[C@H]2C1(C)C	no (0)
O=c1cc(CSc2nnc(-c3ccc(F)cc3)o2)c2ccc3ccccc3c2o1	no (0)
Oc1ccc(N=Cc2ccccc2O)cc1	no (0)

QUERY: Which result was noted for this molecule in the test: COc1cccc(-c2nc3sccn3c2-c2ccnc(NCCNS(=O)(=O)c3ccc(F)cc3)c2)c1
RESULT: no (0)

QUERY: Which result was noted for this molecule in the test: COc1cc2nnc3c4cccnc4[nH]c3c2cc1OC
RESULT: no (0)

QUERY: Which result was noted for this molecule in the test: CNC(=O)c1cc(Oc2ccc(NC(=O)Nc3ccc(Cl)c(OC(F)(F)F)c3)c(F)c2)ccn1
RESULT: yes (1)

---

# System: ACHN renal
# Experimental details: NCI-60 one-dose screen, 48 h
# Conditions: 10 µM unless noted
About 83,000 compounds went through this panel and 20% of them were active in at least one assay; those are over-represented in the sample as a whole. Activity calls are given as the source filed them. How the source made its calls: active means growth percent below 10; inactive means the rest.
Hi! Could you answer with just one of these? active, inactive

Compound	Group label
CCCCn1c(-c2ccc(C(=O)O/N=C(\N)c3ccc4c(c3)OCO4)cc2)nc(-c2ccccc2)c1-c1ccccc1	active
COc1ccc(Nc2c3c4c(cccc4[nH]c2=O)C(=O)c2ccccc2-3)cc1	inactive
Cc1cc2nc(NC(=O)CN3CCN(CCN4C(=O)c5cccc6cccc(c56)C4=O)CC3)sc2cc1C	inactive
NS(=O)(=O)c1ccc(CN=C2NC(=O)S/C2=C\c2ccc(Br)cc2)cc1	inactive
O=C(O)c1ccc(NC(=O)c2ccc(-c3cccc([N+](=O)[O-])c3)o2)cc1	inactive

QUERY: Which result was noted for this compound in the test: COc1ccccc1NS(=O)(=O)c1ccc2oc(SC(C)C)nc2c1
RESULT: inactive

QUERY: Which result was noted for this compound in the test: COc1cc2c(cc1-c1c(C)noc1C)ncc1nc(C3CCCC3)n([C@H](C)COC(F)F)c12
RESULT: inactive

QUERY: Which result was noted for this compound in the test: O=C(O)c1c(=O)cccc2ssc12
RESULT: active

QUERY: Which result was noted for this compound in the test: C/C1=C\CC[C@@]2(C)O[C@H]2[C@H]2OC(=O)C(CN3CCN(CC4C(=O)O[C@H]5[C@H]4CC/C(C)=C/CC[C@@]4(C)O[C@@H]54)CC3)[C@@H]2CC1 (some centres undefined)
RESULT: inactive
